biological target: Peptide 5: Biotin-…-[Tyr(PC)]-acid; experiment: scFv ELISA
Sequence (peptide, as listed by the source): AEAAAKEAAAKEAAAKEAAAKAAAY
Entries whose OD450 is below 1 OD450 take Y; entries at or above 1 OD450 take N.

| Binder | Category |
| --- | --- |
| PcOxP_DB02_B04 (scFv, V domains shown, scFv in periplasmic extract) VH: EVQLLESGGGLVQPGGSLRLSCAASGFTFSDYYMEWVRQAPGKGLEWVAASRNKWNDYTTEYADSVKGRFTISRDNSKNTLYLQMNSLRAEDTAVYYCARDYYGSSYWYFDVWGQGTLVTVSS VL: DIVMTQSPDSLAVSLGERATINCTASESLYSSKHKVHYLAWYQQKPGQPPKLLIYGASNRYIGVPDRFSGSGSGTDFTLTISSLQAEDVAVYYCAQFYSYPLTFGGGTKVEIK | N |
| PcOxP_DB03_F01 (scFv, V domains shown, scFv in periplasmic extract) VH: EVQLLESGGGLVQPGGSLRLSCAASGFTFNDFYMEWVRQAPGKGLEWVAASRNKANDYTTEYADSVKGRFTISRDNSKNTLYLQMNSLRAEDTAVYYCARDYYGSSYWYFDVWGQGTLVTVSS VL: DIQMTQSPSSLSASVGDRVTITCEASESLYSSKHKVHYLAWYQQKPGKAPKLLIYGASNRLIGVPSRFSGSGSGTDFTLTISSLQPEDFATYYCAQFYEYPLTFGGGTKVEIK | Y |
| PcOxP_DB03_E07 (scFv, V domains shown, scFv in periplasmic extract) VH: EVQLLESGGGLVQPGGSLRLSCAASGFTFSDNYMEWVRQAPGKGLEWVAASRNKANDYTNEYADSVKGRFTISRDNSKNTLYLQMNSLRAEDTAVYYCARDYYGSSYWYFDVWGQGTLVTVSS VL: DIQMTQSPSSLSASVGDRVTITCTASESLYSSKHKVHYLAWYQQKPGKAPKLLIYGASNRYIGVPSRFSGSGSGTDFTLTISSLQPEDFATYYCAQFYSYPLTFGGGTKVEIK | Y |

Query :: # TODO verify OD450 < 1 OD450 strictly for this binder: PcOxP_DB03_B07 (scFv, V domains shown, scFv in periplasmic extract) VH: EVQLLESGGGLVQPGGSLRLSCAASGFGFSDFYMEWVRQAPGKGLEWVAASRNKANDYTTEYADSVKGRFTISRDNSKNTLYLQMNSLRAEDTAVYYCARDYYSSSYWYFDVWGQGTLVTVSS VL: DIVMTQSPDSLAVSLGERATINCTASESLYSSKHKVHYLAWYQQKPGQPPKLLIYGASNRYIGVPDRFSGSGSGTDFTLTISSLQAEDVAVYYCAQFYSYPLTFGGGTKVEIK
Result :: Y
